Data provenance is PubChem BioAssay (NCI).

# Test system: HT29 colon
# experimentalDetails: NCI tumour cell line growth inhibition, 48 h
Reported TGI values for a set of compounds

// below: answered compounds
COc1ccc(NC(=O)c2cc(OC)cc(OC)c2)cc1 ... > 100 µM
Cc1cnc(NC(=O)C(Cc2ccccc2)NC(=O)c2ccccc2)s1 (stereo not given) ... > 100 µM
C=CC[C@H]1O[Si](C(C)(C)C)(C(C)(C)C)[C@H](C)[C@H]1C ... > 100 µM
COc1cc(C(=O)/C=C/c2sc(Cl)nc2Cl)cc(OC)c1OC ... 5.53 µM

Okay, next one:
Incoming: Tell me TGI reported for CC(=O)C(CN(C(C)C)C(C)C)C(c1ccccc1)c1c(O)c2ccccc2oc1=O (stereo not given)
Outgoing: > 100 µM

----------
# Test system: KM12 colon
# experimentalDetails: NCI tumour cell line growth inhibition, 48 h
assayReadout: TGI

// below: answered molecules
C/C(CCn1[nH]c(=O)ccc1=O)=N\O ... > 100 µM
C=C(C)[C@@H]1CCC2=C[C@@H](OC2=O)[C@@H](C(=C)C)C2=CC(C(=O)O)=C(C1)O2 ... > 100 µM

Incoming: Tell me TGI reported for `Cn1c2ccc([N+](=O)[O-])cc2c(=O)n1Cc1ccccc1F`
Outgoing: > 100 µM

----------
# Tested on: SF-268 CNS
# experimentalDetails: NCI tumour cell line growth inhibition, 48 h
assayReadout: GI50

// below: answered compounds
COc1ccc(C2=CSc3cc(Cl)c(C)cc3S(=O)(=O)N2C(C)=O)cc1 ... 29.1 µM
Cc1cnc(NC(=O)C(Cc2ccccc2)NC(=O)c2ccccc2)s1 (stereo not drawn) ... 23.2 µM

Incoming: Tell me GI50 reported for `Oc1ccc(Cl)cc1-c1cc(-c2ccccc2Cl)[nH]n1`
Outgoing: 7.71 µM

----------
Reported TGI values for a set of molecules
# Tested on: M19-MEL melanoma
# experimentalDetails: NCI tumour cell line growth inhibition, 48 h

// below: answered molecules
O=C(N/C(=C\c1cc(Cl)ccc1Cl)c1nc2[nH]c(=S)[nH]c(=O)c2[nH]1)c1ccccc1 ... > 68.6 µM
O=C1c2ccccc2C(=O)c2sc(Nc3cccc(Cl)c3)nc21 ... 0.89 µM
C[n+]1c2ccccc2c(NCC(=O)O)c2ccccc21 ... > 100 µM

Okay, next one:
Incoming: Tell me TGI reported for `COc1ccc(-n2/c(=N/C(=S)N(C)C)ss/c2=N\C(=S)N(C)C)cc1`
Outgoing: > 100 µM

----------
# System: HS 578T breast
# experimentalDetails: NCI tumour cell line growth inhibition, 48 h
Where a SMILES comes first, the peptide text is derived from it. [ ]: non-standard residue; d: D form. The star is where a group is joined. Boc = CC(C)(C)OC(=O)*; Lac = C[CH](O)C(=O)O; OBn = c1ccc(CO*)cc1
assayReadout: TGI

Oc1ccc(Cl)cc1-c1cc(-c2ccccc2Cl)[nH]n1 ... > 100 µM
CC(OC(=O)C(Cc1ccccc1)NC(=O)C(Cc1ccccc1)NC(=O)OC(C)(C)C)C(=O)OCc1ccccc1 (stereo not drawn) (Boc-Phe-Phe-[Lac]-OBn; configuration not given here) ... > 100 µM
O=c1n(CC2CO2)c(=O)n(CC2CO2)n1CC1CO1 (centres undefined) ... > 100 µM
C1=CC2C=CC(C=C1)P2c1ccccc1 (centres undefined) ... > 100 µM
O=C(OCc1ccccc1)N(CCCCN(CCCNC(=O)C(F)(F)F)C(=O)OCc1ccccc1)CCCNC(=O)C(F)(F)F ... > 100 µM

Okay, next one:
Incoming: Tell me TGI reported for NC(CSC(c1ccccc1)(c1ccccc1)c1ccc2c(c1)OCO2)C(=O)O (centres undefined)
Outgoing: 24.6 µM

----------
# Test system: SN12C renal
# experimentalDetails: NCI tumour cell line growth inhibition, 48 h
assayReadout: TGI

// below: answered molecules
N/C(=N\N=C/c1ccc(O)c(O)c1O)NO ... 34.9 µM
CN(CC(=O)O)S(=O)(=O)c1ccc2ccccc2c1 ... > 100 µM
CCOC(=O)c1ncn2c1[nH]c(=S)c1ccccc12 ... > 100 µM
NC1CC(=O)c2cscc21 (centres undefined) ... > 100 µM
O=C(Nc1ccc(I)cc1)c1cc([N+](=O)[O-])ccc1O ... 75.4 µM

Incoming: Tell me TGI reported for `CCCCCCCCSC1=CC(=O)c2nc3ccccc3c3ccnc1c23`
Outgoing: > 100 µM

Incoming: Tell me TGI reported for `COc1cccc(NC(=O)CC(=O)n2nc(C)c(N=Nc3ccccc3)c2C)c1`
Outgoing: > 100 µM

Incoming: Tell me TGI reported for `Cc1ccc(-c2nnc(-c3ccc4ccccc4c3)o2)cc1`
Outgoing: > 100 µM

Incoming: Tell me TGI reported for `Cn1c(=O)c2c3ccccc3n(C)c2n(C)c1=O`
Outgoing: > 100 µM

----------
# Tested on: MDA-MB-231 breast
# experimentalDetails: NCI tumour cell line growth inhibition, 48 h
assayReadout: TGI

NC(N)=Nc1ccc(-c2ccc(N=C(N)N)cc2)cc1 ... > 100 µM
Cc1cccc2oc3c(CC(=O)O)cccc3c(=O)c12 ... > 100 µM

Incoming: Tell me TGI reported for `Cc1ccc(Nc2nc(=O)c3c4ccccc4n(C(=O)OC(C)(C)C)c3s2)cc1`
Outgoing: > 100 µM

----------
# Test system: HOP-92 NSCLC
# experimentalDetails: NCI tumour cell line growth inhibition, 48 h
assayReadout: TGI

// below: answered molecules
Cc1ccc(-c2nnc(-c3ccc4ccccc4c3)o2)cc1 ... > 100 µM
COc1cc2c(cc1OC)[C@@H]1[C@H](C#N)C(=O)C(C)(C)N1CC2 ... > 100 µM

Okay, next one:
Incoming: Tell me TGI reported for `NC(=O)c1ccc(C(=O)Nc2ccc([As](=O)(O)O)cc2)cc1`
Outgoing: > 100 µM

----------
Reported TGI values for a set of compounds
# System: MCF7 breast
# experimentalDetails: NCI tumour cell line growth inhibition, 48 h

Cn1c(=O)c2c3ccccc3n(C)c2n(C)c1=O ... > 100 µM
CC[C@@]12CCCN3CC[C@]4(c5cccc(OC)c5N(C(C)=O)[C@@H]4CC1)[C@H]32 ... > 100 µM
Cn1ccnc1C(=O)/C=C/c1ccc(CC(=O)Nc2ccc(Br)cc2)cc1 ... > 16.7 µM
COc1cc2c(c(OC)c1O)C(=O)C(OC)C(c1ccc(O)c(O)c1)O2 (stereo unspecified) ... > 100 µM
NC(N)=Nc1ccc(-c2ccc(N=C(N)N)cc2)cc1 ... > 100 µM

Okay, next one:
Incoming: Tell me TGI reported for `Cc1cccc2oc3c(CC(=O)O)cccc3c(=O)c12`
Outgoing: > 100 µM

----------
Reported TGI values for a set of molecules
# Test system: NCI-H23 lung
# experimentalDetails: NCI tumour cell line growth inhibition, 48 h

// below: answered molecules
C=C(C)[C@@H]1CCC2=C[C@@H](OC2=O)[C@@H](C(=C)C)C2=CC(C(=O)O)=C(C1)O2 ... > 100 µM
N=C(N)c1ccc(/C=C/c2ccc(C(=N)N)cc2)cc1 ... > 100 µM
COc1cc2c(cc1OC)[C@@H]1[C@H](C#N)C(=O)C(C)(C)N1CC2 ... > 100 µM

Incoming: Tell me TGI reported for CC1(C)COC(c2ccc(C(F)(F)F)cc2C(O)c2ccc3ccccc3c2)=N1 (stereo unspecified)
Outgoing: > 100 µM

Incoming: Tell me TGI reported for CSC1=C(C#N)C(=S)N=C(N)C1C(=O)Nc1ccc(C)cc1 (stereo unspecified)
Outgoing: > 100 µM

----------
# System: HCT-116 colon
# experimentalDetails: NCI tumour cell line growth inhibition, 48 h
Reported TGI values for a set of compounds

CC1(C)COC(c2ccc(C(F)(F)F)cc2C(O)c2ccc3ccccc3c2)=N1 (stereo not given) ... > 10 µM
C/C(CCn1[nH]c(=O)ccc1=O)=N\O ... > 100 µM
Cc1cc(=O)[nH]c2cc3oc4ccccc4c3cc12 ... > 100 µM
Cc1cc2nc(C(Cl)Cl)nc(-c3ccc(Cl)cc3)n2n1 ... > 33.1 µM

Okay, next one:
Incoming: Tell me TGI reported for `CC(=O)N1[C@H](C(=O)O)CS[C@H]1c1ccncc1`
Outgoing: > 100 µM

----------
# Test system: NCI-H23 lung
# experimentalDetails: NCI tumour cell line growth inhibition, 48 h
assayReadout: TGI

COc1ccc(-n2/c(=N/C(=S)N(C)C)ss/c2=N\C(=S)N(C)C)cc1 ... > 100 µM
O=C(O)c1cc(C(=O)O)cc(N2C(=O)c3ccccc3C2=O)c1 ... > 100 µM

Incoming: Print NCI-H23 lung TGI for `CNC(=O)c1ccccc1Nc1nc(Nc2ccc(N3CCOCC3)cc2OC)ncc1Cl` .
Outgoing: > 43.8 µM

----------
# Tested on: UO-31 renal
# experimentalDetails: NCI tumour cell line growth inhibition, 48 h
Reported TGI values for a set of compounds
Numbers only; they are read as µM.

NC(N)=N/N=C/c1c(-c2ccc(Cl)c([N+](=O)[O-])c2)nc2sc(Cl)cn12 ... 3.47

Okay, next one:
Incoming: Print UO-31 renal TGI for CC(=O)OC(C)C(=O)C1c2cccc(O)c2C(=O)c2c(O)cc(C)cc21 (centres undefined) .
Outgoing: 0.744
